# pKd annotations
Measured Target: T1, SNTB1, Q13884
T1 sequence (Q13884 107-205, limits assumed, looked up): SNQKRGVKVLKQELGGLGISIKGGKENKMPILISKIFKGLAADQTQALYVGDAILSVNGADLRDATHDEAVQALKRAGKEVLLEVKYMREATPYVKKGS
Method Notes: holdup assay
Design: key: below the threshold = too weak to quantify, mostly under pKd 3.1 to 4
Settings: plain residues with an end cap or a label only (N-terminal biotin on a linker: ado-ado)
Write the value as a bare number.

Record excerpt, results attached:
Binder	Quantity Kind	Observed Measurement
KSRVAFFEEL [NF2, P35240]	pKd	3.54
APIAGFSSFV [SDK2, Q58EX2]	pKd	3.97
ARESQKVSHV [FAM110B, Q8TC76]	pKd	4.52

Could you tell me which pKd is on file for REEPDHSTEV [CCRL2, O00421] ?
4.36
